system: Huh-7 HCV replicon cells (1b replicon); experiment: anti-HCV activity in Huh-7 cell line harboring a HCV replicon (luciferase readout); assay type: cell-based; conditions: Hepatitis C virus, Huh-7, 72 h, inhibition of viral replication, Huh-7 HCV replicon cells, 3 days; read-out: EC50
For each record, write down the corresponding EC50.

Hey, can you go through the list below and give me EC50 for every item?
1. CO[C@@H](C)[C@@H]1OC(=O)C(C)(C)/C=C/c2ccc3ccc(nc3c2)[C@@H](C)NC(=O)[C@@H]2CCCN(N2)C(=O)[C@H](C)NC1=O [Compound 54]
2. C[C@@H]1NC(=O)[C@H]([C@@H](C)O)OC(=O)C(C)(C)/C=C/c2ccc3ccc(nc3c2)[C@@H](C)NC(=O)[C@@H]2CCCN(N2)C1=O [Compound 87]
3. C[C@@H]1NC(=O)[C@H](C(C)(C)C)OC(=O)C(C)(C)/C=C/c2ccc3ccc(nc3c2)[C@@H](C)NC(=O)[C@@H]2CCCN(N2)C1=O [Compound 70]

1: < 1000 nM; 2: < 1000 nM; 3: < 1000 nM
